# Target Under Test: F508delCFTR (Homo sapiens, UniProt P13569, DEL508-508)
# Construct: expressed in transfected cells; host or cells: CFBE41o- (human lung derived epithelial cell line), doxycycline-inducible expression
# Sequence (P13569 with tags, fused parts or gaps DEL508-508): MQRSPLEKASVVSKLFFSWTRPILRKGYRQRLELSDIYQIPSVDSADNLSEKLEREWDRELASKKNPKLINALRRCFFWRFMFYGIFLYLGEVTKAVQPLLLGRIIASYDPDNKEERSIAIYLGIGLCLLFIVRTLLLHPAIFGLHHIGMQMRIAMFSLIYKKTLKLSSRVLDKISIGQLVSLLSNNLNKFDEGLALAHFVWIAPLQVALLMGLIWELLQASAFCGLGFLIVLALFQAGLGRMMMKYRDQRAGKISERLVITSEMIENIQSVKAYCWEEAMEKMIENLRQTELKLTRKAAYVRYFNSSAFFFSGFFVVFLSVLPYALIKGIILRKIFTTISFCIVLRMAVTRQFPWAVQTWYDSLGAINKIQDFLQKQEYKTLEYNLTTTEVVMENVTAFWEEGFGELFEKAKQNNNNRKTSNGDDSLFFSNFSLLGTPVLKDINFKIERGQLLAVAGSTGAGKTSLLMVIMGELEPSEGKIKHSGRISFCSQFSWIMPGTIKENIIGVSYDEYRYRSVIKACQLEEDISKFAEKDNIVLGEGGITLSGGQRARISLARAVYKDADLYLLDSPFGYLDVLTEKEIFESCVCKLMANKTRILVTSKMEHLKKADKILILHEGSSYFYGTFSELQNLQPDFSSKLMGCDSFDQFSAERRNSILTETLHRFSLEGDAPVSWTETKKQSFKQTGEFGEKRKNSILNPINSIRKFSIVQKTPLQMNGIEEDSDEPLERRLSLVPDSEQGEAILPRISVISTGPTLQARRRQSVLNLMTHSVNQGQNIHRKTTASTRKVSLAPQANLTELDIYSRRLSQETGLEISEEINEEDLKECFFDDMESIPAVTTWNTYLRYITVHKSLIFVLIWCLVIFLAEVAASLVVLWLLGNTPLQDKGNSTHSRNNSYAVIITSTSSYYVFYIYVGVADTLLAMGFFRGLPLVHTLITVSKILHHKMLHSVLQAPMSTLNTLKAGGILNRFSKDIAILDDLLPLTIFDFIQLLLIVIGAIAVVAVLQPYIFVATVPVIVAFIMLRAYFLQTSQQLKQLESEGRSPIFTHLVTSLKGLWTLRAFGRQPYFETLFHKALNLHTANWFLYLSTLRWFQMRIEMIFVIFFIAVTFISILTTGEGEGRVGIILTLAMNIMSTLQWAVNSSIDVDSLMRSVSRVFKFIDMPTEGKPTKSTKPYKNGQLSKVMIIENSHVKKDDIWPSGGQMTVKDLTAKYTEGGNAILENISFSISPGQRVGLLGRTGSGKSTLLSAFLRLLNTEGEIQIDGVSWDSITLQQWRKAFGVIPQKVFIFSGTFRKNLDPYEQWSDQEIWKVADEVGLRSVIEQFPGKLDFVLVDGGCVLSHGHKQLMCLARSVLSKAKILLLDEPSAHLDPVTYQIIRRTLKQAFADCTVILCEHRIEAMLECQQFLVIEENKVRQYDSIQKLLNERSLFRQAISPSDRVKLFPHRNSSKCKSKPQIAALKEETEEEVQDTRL
# Experiment Summary: Cell Surface Expression-Horse Radish Peroxidase (CSE-HRP) assay
# Assay type: cell-based
# Test Context: CFBE41o-F508delCFTR-HRP cells; test compound without co-corrector; 18-24 hours at 33° C.; read-out: EC50 (without co-corrector)
Observed Property: EC50

Compound | Observed Result
COc1ccc(C2(C)CCC2)cc1CO[C@H]1[C@H](C(C)(C)C)[C@@H](C(=O)O)N(C(=O)[C@@H]2CCCCO2)[C@H]1c1ccccc1C [Example 215] | < 1000 nM
COc1ncc(C(F)(F)F)cc1CO[C@H]1[C@H](C(C)(C)C)[C@@H](C(=O)O)N(C(=O)[C@@H]2CCCCO2)[C@H]1c1ccccc1-c1ccccc1C [Example 195] | 1000 to 10000 nM
COc1ncc(C2CCC2)cc1CO[C@H]1[C@H](C(C)(C)C)[C@@H](C(=O)O)N(C(=O)[C@@H]2CCCO2)[C@H]1c1ccccc1Br [Example 144] | < 1000 nM
COc1ncc(C(F)(F)F)cc1CO[C@H]1[C@H](C(C)(C)C)[C@@H](C(=O)O)N(C(=O)[C@@H]2CCCCO2)[C@H]1c1ccccc1-c1ccn(C)c1 [Example 199] | 1000 to 10000 nM
COc1ncc(C2CCC2)cc1CO[C@H]1[C@H](C(C)(C)C)[C@@H](C(=O)O)N(C(=O)[C@@H]2CCCCO2)[C@H]1c1cccc2c1CCCC2 [Example 218] | < 1000 nM
COc1ncc(C2CC3CCC2C3)cc1CO[C@H]1[C@H](C(C)(C)C)[C@@H](C(=O)O)N(C(=O)C2CCCCC2)[C@H]1c1ccccc1F (stereo partly drawn) [Example 58] | < 1000 nM

---

# Target Under Test: F508delCFTR (Homo sapiens, UniProt P13569, DEL508-508)
# Construct: expressed in transfected cells; host or cells: CFBE41o- (human lung derived epithelial cell line), doxycycline-inducible expression
# Experiment Summary: Cell Surface Expression-Horse Radish Peroxidase (CSE-HRP) assay
# Assay type: cell-based
# Test Context: CFBE41o-F508delCFTR-HRP cells; test compound without co-corrector; 18-24 hours at 33° C.; read-out: EC50 (without co-corrector)
pEC50: −log10 of the molar value.

Compound | pEC50
COc1nc2c(C)cc(C)cc2cc1CO[C@H]1[C@H](C(C)(C)C)[C@@H](C(=O)O)N(C(=O)[C@@H]2CCCCO2)[C@H]1c1ccccc1C | 5.00 to 6.00
CC(C)(C)[C@@H]1C(OCc2cc(Cl)ccc2Cl)[C@@H](c2ccccc2)N(C(=O)CC2CCCC2)[C@H]1C(=O)O (mixture of isomers) | 5.00 to 6.00
COc1ncc(C(F)(F)F)cc1CO[C@H]1[C@H](C(C)(C)OC)[C@@H](C(=O)O)N(C(=O)[C@@H]2CCCCO2)[C@H]1c1ccccc1C(C)C | > 6.00
COc1ncc(C(F)(F)F)cc1CO[C@H]1[C@H](C(C)(C)C)[C@@H](C(=O)O)N(C(=O)[C@@H]2CCCCO2)[C@H]1c1ccccc1-c1ccccc1Cl | 5.00 to 6.00
COc1ncc(Br)cc1CO[C@H]1[C@H](C(C)(C)C)[C@@H](C(=O)O)N(C(=O)OC(C)C)[C@H]1c1ccccc1F | 5.00 to 6.00
COc1ncc(C(F)(F)F)cc1CO[C@@H]1[C@H](C(C)(C)C)[C@@H](C(=O)O)N(C(=O)C2CCCC2)[C@H]1c1cccnc1OC(C)C | < 5.00
COc1ncc(C(F)(F)F)cc1CO[C@H]1[C@H](C(C)(C)C)[C@@H](C(=O)O)N(C(=O)[C@@H]2CCCO2)[C@H]1c1cccc(C2CC2)c1 | 5.00 to 6.00
COc1ncc(C(F)(F)F)cc1CO[C@H]1[C@H](C(C)(C)C)[C@@H](C(=O)O)N(C(=O)[C@@H]2CCCO2)[C@H]1c1cccnc1OC(C)C | 5.00 to 6.00
COc1ncc(C2CCC2)cc1CO[C@H]1[C@H](C(C)(C)C)[C@@H](C(=O)O)N(C(=O)C2CCCCC2)[C@H]1c1ccccc1Br | 5.00 to 6.00
COc1ccc(C(C)(C)C)cc1CO[C@H]1[C@H](C(C)(C)C)[C@@H](C(=O)O)N(C(=O)[C@@H]2CCC[C@@H](OC)C2)[C@H]1c1ccccc1 | > 6.00
COc1ncc(Br)cc1CO[C@H]1[C@H](C(C)(C)C)[C@@H](C(=O)O)N(C(=O)OC(C)C)[C@H]1c1ccccc1 | 5.00 to 6.00
COc1ncc(C2CCC2)cc1CO[C@H]1[C@H](C(C)(C)C)[C@@H](C(=O)O)N(C(=O)[C@@H]2CCCCO2)[C@H]1c1ccccc1C1CC1 | 5.00 to 6.00
